All figures here come from PubChem BioAssay (NCATS).

# measurementDescription: Quantitative High-Throughput drug screen in 47 multiple myeloma cell lines against the NCATS MIPE library collection: H1112_PLB cell viability assay (AID 1918967; note: nearly all actives have a fitted effect of over 30% in size; note: potency is the fitted concentration of half-maximal effect)
# conditionContext: H1112 myeloma cells viability, ATP luminescence, 48 h; series mostly up to 45.8 µM
Inconclusive results are not listed. Active and inactive are the calls of the source. Calls come from the whole dose curve; as a rule, active = well fitted cell-killing curve with a large enough effect; inconclusive = small, poorly fitted or top-dose-only effect, or effect the other way; inactive = no such curve, though single readings can be large or run the other way.
measurementName: Potency

>  <molecule>
COCCOc1nc(-c2ccc(Cl)c(Cl)c2)n(-c2ccc(NC(=O)CCl)cc2)n1

>  <Potency>
14.8 µM (active)

$$$$
>  <molecule>
Cc1cccc(Nc2nc(-c3ccncc3)cs2)c1

>  <Potency>
18.7 µM (active)

$$$$
>  <molecule>
CNC(=O)c1ccccc1Sc1ccc2c(C=Cc3ccccn3)n[nH]c2c1

>  <Potency>
0.296 µM (active)

$$$$
>  <molecule>
CC(C)(Cc1ccc2ccccc2c1)NC[C@@H](O)COc1cccc(Cl)c1C#N

>  <Potency>
inactive

$$$$
>  <molecule>
NC1=N[C@@]2(c3cc(NC(=O)c4ccc(F)cn4)ccc3F)COC[C@@H]2CS1

>  <Potency>
10.5 µM (active)

$$$$
>  <molecule>
O=C(O)CCC1CCC(c2cc(F)ccc2F)(S(=O)(=O)c2ccc(Cl)cc2)CC1 (configuration not stated)

>  <Potency>
9.35 µM (active)

$$$$
>  <molecule>
CC(=O)OC1C(C)OC(Oc2c(-c3ccc(O)cc3)oc3cc(O)cc(O)c3c2=O)C(O)C1OC(C)=O (configuration not stated)

>  <Potency>
inactive

$$$$
>  <molecule>
NC1CCC(Nc2nc(Nc3ccc(C(=O)N4CCCCC4)cc3)c3ncn(-c4cccc(F)c4)c3n2)CC1 (configuration not stated)

>  <Potency>
inactive

$$$$

Task: Retrieve Potency measured for CCOC(=O)O[C@]1(C(=O)OCCl)CC[C@@H]2[C@H]3CCC4=CC(=O)C=C[C@]4(C)[C@@H]3[C@@H](O)C[C@@]21C and print it.
Output: inactive

Task: Supply recorded Potency for C[C@]12CC[C@@H]3c4ccc(O)cc4CC[C@H]3[C@H]1C[C@@H](O)[C@H]2O here.
Output: inactive

Task: Give Potency for CC(C)(C)NC(=O)Nc1cccc(Nc2ncc(F)c(NC(C)(C)CO)n2)c1
Output: inactive

Task: Please list Potency recorded for the molecule COc1cc2nc(-c3ccc(N4CCN(C)CC4)cc3)nc(NCCN3CCOCC3)c2cc1OC
Output: 1.48 µM (active)

Task: Return reported Potency. Input molecule: Cc1[nH]c(C=C2C(=O)Nc3ccc(S(=O)(=O)Cc4c(Cl)cccc4Cl)cc32)c(C)c1C(=O)N1CCC[C@H]1CN1CCCC1
Output: 14.8 µM (active)

Task: Give a short answer stating reported Potency for c1ccc2c(-c3cnn4cc(-c5ccc(N6CCNCC6)cc5)cnc34)ccnc2c1 .
Output: 3.32 µM (active)

Task: Quickly give me recorded Potency for Nc1ncnc2c1ncn2[C@@H]1O[C@H](CO)C[C@@H]1O
Output: inactive

Task: Input CC(=O)N(C)C1(c2ccccc2)CCN(CCC[C@]2(c3ccc(Cl)c(Cl)c3)CCCN(C(=O)c3ccccc3)C2)CC1 , output reported Potency.
Output: 20.9 µM (active)

Task: Tell me measured Potency for Nc1nc(F)nc2c1ncn2[C@@H]1O[C@H](COP(=O)(O)O)[C@@H](O)[C@H]1O please.
Output: inactive

Task: Please give the documented Potency of C[C@H]1[C@H](NC(=O)C(=NOC(C)(C)C(=O)O)c2csc(N)n2)C(=O)N1S(=O)(=O)O
Output: inactive

Task: Input C[C@]12CC[C@@H]3c4ccc(O)cc4C[C@@H](CCCCCCCCCS(=O)CCCC(F)(F)C(F)(F)F)[C@H]3[C@H]1CC[C@H]2O (some centres not stated) , output reported Potency.
Output: inactive

Task: Determine its reported Potency: Nc1ncnc2c1nc(Cl)n2[C@@H]1O[C@H](CO)[C@@H](O)[C@@H]1O
Output: 18.7 µM (active)

Task: Give recorded Potency. CC(C)C(C)C=CC(C)C1CCC2C3=CC=C4CC(O)CCC4(C)C3CCC21C (configuration not stated)
Output: inactive

Task: Specify reported Potency for the molecule shown: C=C1C(=O)[C@@]23C(CC[C@@H]1[C@H]2O)[C@@]12CO[C@]3(O)[C@@H](O)[C@@H]1C(C)(C)CC[C@@H]2O (some centres not stated)
Output: 18.7 µM (active)

Task: Give the reported Potency for this molecule. O=C(CCCCCCC(=O)Nc1ccccc1)NO
Output: 4.18 µM (active)

Task: Return value of Potency for input CN1[C@@H]2CCC[C@@H]1CC(NC(=O)c1nn(C)c3ccccc13)C2 (some centres not stated) , no commentary.
Output: inactive

Task: Assign Potency to the following record: O=C(O)c1ccccc1C(=O)Nc1ccc(-c2ccccc2)cc1
Output: inactive

Task: Fill in Potency for record CC(C)(C)C(=O)Oc1ccc2c(c1)nc(NC(=O)c1cccc([N+](=O)[O-])c1)n2CCCO
Output: inactive

Task: Respond only with Potency recorded for C[C@@H]1CCN(C(=O)CC#N)C[C@H]1N(C)c1ncnc2[nH]ccc12
Output: inactive

Task: Please list Potency recorded for the molecule O=C(CCN1CCN(C(=O)OCc2cc(Cl)cc(Cl)c2)CC1)c1ccc2[nH]c(=O)oc2c1
Output: inactive

Task: Output Potency of COc1cc(NC(=O)c2ccc(-c3ccc(Cl)cc3)o2)cc(OC)c1
Output: 2.96 µM (active)

Task: Name the recorded Potency of the item CCc1ccc(OCc2ccccc2C(=O)Nc2ccc3nc(C)cc(N)c3c2)cc1 in your answer.
Output: 2.96 µM (active)

Task: Report Potency, nothing else, for this molecule: Cc1ccc([C@@H]2O[C@H](CO)[C@@H](O)[C@H](O)[C@@H]2O)cc1Cc1ccc(-c2ccc(F)cc2)s1
Output: inactive

Task: Respond only with Potency recorded for CC(=Cc1ccccc1)C=C1SC(=S)N(CC(=O)O)C1=O
Output: inactive

Task: Provide measured Potency value, entry: O=C1c2ccccc2-[n+]2ccc3c([nH]c4ccccc43)c21
Output: 5.26 µM (active)
